Target: human NaP2b (SLC34A2) (Homo sapiens, UniProt O95436)
Construct: host or cells: HEK293
Sequence (O95436 whole entry): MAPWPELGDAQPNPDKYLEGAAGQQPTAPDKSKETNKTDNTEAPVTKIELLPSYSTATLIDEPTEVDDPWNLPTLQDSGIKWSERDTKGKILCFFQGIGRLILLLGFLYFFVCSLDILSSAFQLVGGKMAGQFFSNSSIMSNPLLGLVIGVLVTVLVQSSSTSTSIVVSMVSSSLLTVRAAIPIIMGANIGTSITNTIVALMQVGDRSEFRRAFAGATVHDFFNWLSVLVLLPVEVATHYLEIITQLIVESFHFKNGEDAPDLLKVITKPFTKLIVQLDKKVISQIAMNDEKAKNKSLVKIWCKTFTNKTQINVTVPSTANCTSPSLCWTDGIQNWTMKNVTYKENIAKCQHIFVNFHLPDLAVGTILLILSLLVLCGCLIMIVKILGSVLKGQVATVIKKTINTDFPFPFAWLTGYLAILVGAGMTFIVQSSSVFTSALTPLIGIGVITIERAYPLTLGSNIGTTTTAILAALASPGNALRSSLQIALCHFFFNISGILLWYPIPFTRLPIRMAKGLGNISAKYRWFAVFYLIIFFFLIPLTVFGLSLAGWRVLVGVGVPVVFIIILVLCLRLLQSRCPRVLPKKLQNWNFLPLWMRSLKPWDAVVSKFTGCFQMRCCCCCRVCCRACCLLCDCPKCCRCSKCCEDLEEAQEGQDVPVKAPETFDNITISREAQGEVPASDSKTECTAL
Assay: Inhibition of NaP2b-mediated Pi (33P) uptake in transfected HEK293 cells, human NaP2b
Format: cell-based
Settings: read-out: pIC50 range for human NaP2b (converted)
Description: HEK293 cells were obtained from the American Type Culture collection and propagated per their instructions. […] After incubation for 3-30 minutes at room temperature, assay mixtures were removed, and the cells were washed twice with ice cold stop solution (137 mM sodium chloride, 14 mM Tris, pH 7.4). Cells were lysed by addition of 20 μL 0.1% Tween 80 followed by 100 μL scintillation fluid, and counted using a TopCount (Perkin Elmer). […]
readout label: IC50

Completed entries (count: 2):
input smiles | IC50
CN(Cc1cncn1C)C(=O)c1cccc(C(=O)Nc2ccc(N3CCCCC3)cc2-c2cc(C(=O)NCc3cccc(C(F)(F)F)c3)ccn2)c1 | < 1000 nM
CCN(CC)c1ccc(NC(=O)c2cccc(CCCOCCOCCOCCOCCO)c2)c(-c2cc(C(=O)NCc3cccc(C(F)(F)F)c3)ccn2)c1 | < 1000 nM

Lookup: Item CCN(CC)c1ccc(NC(=O)c2cccc(CCCOCCOCCOCCOCCC(=O)O)c2)c(-c2cc(C(=O)N[C@H]3CCCc4ccccc43)ccn2)c1 with human NaP2b (SLC34A2) (Homo sapiens, UniProt O95436) - IC50?
Found: < 1000 nM

Lookup: Param item: CCN(CC)c1ccc(NC(=O)c2cccc(CCCOCCOCCOCCOCCC(=O)O)c2)c(-c2cc(C(=O)NCc3cccc(C(F)(F)F)c3)ccn2)c1
Found: < 1000 nM

Lookup: Param item: CCN(CC)c1ccc(NC(=O)c2cccc(CSCCOCCOCCOCCOCCC(=O)N(CCO)CCO)c2)c(-c2cc(C(=O)NCc3cccc(C(F)(F)F)c3)ccn2)c1
Found: < 1000 nM

Lookup: Param item: O=C(O)CCOCCOCCOCCOCCCc1cccc(C(=O)Nc2ccc(Cl)cc2-c2cc(C(=O)N[C@H]3CCCc4ccccc43)ccn2)c1
Found: < 1000 nM

Lookup: Param item: CCN(CC)c1ccc(NC(=O)c2cccc(CCCOCCOCCOCCOCCC(=O)N3CCN(S(=O)(=O)c4ccc(C(=O)O)cc4)CC3)c2)c(-c2cc(C(=O)NCc3cccc(C(F)(F)F)c3)ccn2)c1
Found: 1000 to 7940 nM

Lookup: Param item: CCN(CC)c1ccc(NC(=O)c2cccc(CSCCOCCOCCOCCOCCC(=O)NC(CO)CO)c2)c(-c2cc(C(=O)N[C@H]3CCCc4ccccc43)ccn2)c1
Found: < 1000 nM

Lookup: Param item: CCN(CC)c1ccc(NC(=O)c2cccc(C(=O)N(C)CCN(CCOC)CCOCCOCCOCCOCCOCCOCCOC)c2)c(-c2cc(C(=O)N[C@H]3CCCc4ccccc43)ccn2)c1
Found: 1000 to 7940 nM

Lookup: Param item: COCCOCCOCCOCCOCCOCCOCCOCCOCc1cccc(C(=O)Nc2ccc(OC3CCC3)cc2-c2cc(C(=O)NCc3cccc(C(F)(F)F)c3)ccn2)c1
Found: < 1000 nM

###

IC50 values, listed per item
molecular target: rat NaP2b (SLC34A2) (Rattus norvegicus, UniProt Q9JJ09); construct: host or cells: HEK293; assay: Inhibition of NaP2b-mediated Pi (33P) uptake in transfected HEK293 cells, rat NaP2b; assay type: cell-based; details: 33P Pi uptake, 0.1 mM phosphate, value given as pIC50 range
Sequence (Q9JJ09 whole entry): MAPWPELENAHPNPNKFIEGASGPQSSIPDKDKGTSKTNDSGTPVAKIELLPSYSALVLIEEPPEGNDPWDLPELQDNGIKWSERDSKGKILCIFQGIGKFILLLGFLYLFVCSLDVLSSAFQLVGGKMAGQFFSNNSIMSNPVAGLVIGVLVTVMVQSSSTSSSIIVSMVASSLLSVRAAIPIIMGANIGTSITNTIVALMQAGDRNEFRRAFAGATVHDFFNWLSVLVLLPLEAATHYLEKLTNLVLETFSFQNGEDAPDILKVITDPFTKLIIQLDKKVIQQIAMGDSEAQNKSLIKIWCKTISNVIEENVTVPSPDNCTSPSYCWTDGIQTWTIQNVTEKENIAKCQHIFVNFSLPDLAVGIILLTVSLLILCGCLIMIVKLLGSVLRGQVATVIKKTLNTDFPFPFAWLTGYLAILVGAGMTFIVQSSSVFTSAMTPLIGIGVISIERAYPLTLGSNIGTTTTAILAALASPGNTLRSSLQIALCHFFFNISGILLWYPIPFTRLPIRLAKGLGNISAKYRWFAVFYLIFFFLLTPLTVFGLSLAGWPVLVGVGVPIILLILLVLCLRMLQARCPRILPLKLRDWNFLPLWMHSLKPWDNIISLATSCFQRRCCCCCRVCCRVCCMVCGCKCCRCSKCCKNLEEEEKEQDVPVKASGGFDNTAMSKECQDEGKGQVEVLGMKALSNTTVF

compound | assayed system | readout label | result
O=C(O)Cc1ccc(SCc2cccc(C(=O)Nc3ccc(N4CCCCC4)cc3-c3cc(C(=O)NCc4cccc(C(F)(F)F)c4)ccn3)c2)cc1 [Example 8.17] | rat NaP2b (SLC34A2) (Rattus norvegicus, UniProt Q9JJ09) | IC50 | < 1 µM
Cc1ccc(CNC(=O)c2ccnc(-c3cc(N4CCCCC4)ccc3NC(=O)c3cccc(CSCCC(=O)O)c3)c2)o1 [Example 1.18] | rat NaP2b (SLC34A2) (Rattus norvegicus, UniProt Q9JJ09) | IC50 | 1 to 7.94 µM
Cc1cccc(CN(C)C(=O)c2ccnc(-c3cc(N4CCCCC4)ccc3NC(=O)c3cccc(CSCCC(=O)O)c3)c2)c1 [Example 1.38] | rat NaP2b (SLC34A2) (Rattus norvegicus, UniProt Q9JJ09) | IC50 | 10 to 31.6 µM
Cc1ccc(C(=O)Nc2ccnc(-c3cc(N4CCCCC4)ccc3NC(=O)c3cccc(CSCCC(=O)O)c3)c2)cc1C [Example 74] | rat NaP2b (SLC34A2) (Rattus norvegicus, UniProt Q9JJ09) | IC50 | 10 to 31.6 µM
CCN(CC)c1ccc(NC(=O)c2cccc(CCCOCCOCCOCCOCCC(=O)NC(CO)(CO)CO)c2)c(-c2cc(C(=O)N[C@H]3CCCc4ccccc43)ccn2)c1 [Example 283] | rat NaP2b (SLC34A2) (Rattus norvegicus, UniProt Q9JJ09) | IC50 | < 1 µM

Lookup: # input compound: COCCN(C)C(=O)N1CCN(CCN(C)Cc2cccc(C(=O)Nc3ccc(N4CCCCC4)cc3-c3cc(C(=O)NCc4cccc(C(F)(F)F)c4)ccn3)n2)CC1 [Example 210] ; wanted: its IC50
Found: 10 to 31.6 µM

Lookup: Param item: CCN(CC)c1ccc(NC(=O)c2cccc(CCCOCCOCCOCCOCCOCCOCCOCCOCCOCCC(=O)O)c2)c(-c2cc(C(=O)NCc3cccc(C(F)(F)F)c3)ccn2)c1 [Example 298]
Found: 1 to 7.94 µM

Lookup: Param item: O=C(O)CCSCc1cccc(C(=O)Nc2ccc(N3CCCCC3)cc2-c2cc(C(=O)NCc3ccc(OC(F)(F)F)cc3)ccn2)c1 [Example 1.44]
Found: 1 to 7.94 µM

Lookup: Param item: O=C(O)CCCc1cccc(SCc2cccc(C(=O)Nc3ccc(N4CCCCC4)cc3-c3cc(C(=O)NCc4cccc(C(F)(F)F)c4)ccn3)c2)c1 [Example 8.19]
Found: 1 to 7.94 µM

Lookup: Param item: CN(CC(=O)N1CCN(CCOCCO)CC1)C(=O)c1cccc(C(=O)Nc2ccc(N3CCCCC3)cc2-c2cc(C(=O)N[C@H]3CCCc4ccccc43)ccn2)c1 [Example 246]
Found: 1 to 7.94 µM
